Items are presented alongside their recorded pIC50.
assayed-system: human plasmin (Homo sapiens)
Sequence (P00747 581-810 limits assumed): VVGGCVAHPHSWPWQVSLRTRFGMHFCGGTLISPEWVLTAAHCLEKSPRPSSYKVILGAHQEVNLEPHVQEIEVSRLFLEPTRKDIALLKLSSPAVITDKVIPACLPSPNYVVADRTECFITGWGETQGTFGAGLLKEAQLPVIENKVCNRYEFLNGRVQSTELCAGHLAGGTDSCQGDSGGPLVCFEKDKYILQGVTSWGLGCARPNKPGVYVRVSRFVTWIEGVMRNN
Sequence (P00747 97-580 limits assumed): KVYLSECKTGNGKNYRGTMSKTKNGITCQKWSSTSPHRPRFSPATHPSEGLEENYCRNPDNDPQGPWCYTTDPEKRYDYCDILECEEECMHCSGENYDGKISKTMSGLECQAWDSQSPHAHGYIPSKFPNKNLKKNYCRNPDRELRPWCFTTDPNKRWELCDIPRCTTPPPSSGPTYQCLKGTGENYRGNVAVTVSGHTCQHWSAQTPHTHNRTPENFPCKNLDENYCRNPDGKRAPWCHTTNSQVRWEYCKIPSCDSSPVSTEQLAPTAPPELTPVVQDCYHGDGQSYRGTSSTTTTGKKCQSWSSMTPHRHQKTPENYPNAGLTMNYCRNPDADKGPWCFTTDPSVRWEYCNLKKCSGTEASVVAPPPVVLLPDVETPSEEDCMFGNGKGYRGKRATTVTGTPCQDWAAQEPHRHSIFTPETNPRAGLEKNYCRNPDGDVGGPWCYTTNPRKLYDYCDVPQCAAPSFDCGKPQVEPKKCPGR
protocol: Antiplasmin activity: inhibition of fibrin decomposition
Format: biochemical
conditions: Table 2, pH 7.4, 37° C., read-out: Plasmin Fibrin I50 (concentration doubling fibrin dissolution time)
pIC50: −log10 of the molar value.

As a guide, the following entries are already answered.
{"columns": ["compound", "pIC50"],
 "data": [
  ["COC(=O)[C@@H](C)NC(=O)C(Cc1cccc(Oc2ccccc2)c1)NC(=O)[C@H]1CC[C@H](CN)CC1 (stereo partly drawn) [Compound 16]", "< 3.00"],
  ["N=C(N)Nc1ccc(C(=O)NC(Cc2cccc(Oc3ccccc3)c2)C(=O)N2CCC(C(=O)O)CC2)cc1 (racemic) [Compound 35]", "< 3.70"],
  ["NC[C@H]1CC[C@H](C(=O)NC(Cc2cccc(Oc3ccccc3)c2)C(=O)NCC(=O)c2ccccc2)CC1 (stereo partly drawn) [Compound 15]", "< 4.00"],
  ["COC(=O)[C@H]1CCCN1C(=O)C(Cc1cccc(Oc2ccccc2)c1)NC(=O)[C@H]1CC[C@H](CN)CC1 (stereo partly drawn) [Compound 20]", "< 4.22"],
  ["CCOC(=O)C1CCN(C(=O)C(Cc2cccc(Oc3ccccc3)c2)NC(=O)[C@H]2CC[C@H](CNC(=N)N)CC2)CC1 (stereo partly drawn) [Compound 31]", "< 4.00"]
]}

Tell us which pIC50 value is on record for CC(=O)c1ccc(NC(=O)C(Cc2cccc(Oc3ccccc3)c2)NC(=O)[C@H]2CC[C@H](CNC(=N)N)CC2)cc1 (mixture of isomers) [Compound 30] < 4.30

---

assayed-system: human plasma kallikrein (Homo sapiens)
Sequence (P03952 391-638 limits assumed): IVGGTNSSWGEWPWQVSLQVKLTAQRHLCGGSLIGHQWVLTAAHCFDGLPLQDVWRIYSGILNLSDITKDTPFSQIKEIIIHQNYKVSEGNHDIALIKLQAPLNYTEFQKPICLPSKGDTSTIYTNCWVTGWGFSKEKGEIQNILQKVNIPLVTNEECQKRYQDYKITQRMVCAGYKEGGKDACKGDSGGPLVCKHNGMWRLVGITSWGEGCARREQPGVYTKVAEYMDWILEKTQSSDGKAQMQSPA
Sequence (P03952 20-390 limits assumed): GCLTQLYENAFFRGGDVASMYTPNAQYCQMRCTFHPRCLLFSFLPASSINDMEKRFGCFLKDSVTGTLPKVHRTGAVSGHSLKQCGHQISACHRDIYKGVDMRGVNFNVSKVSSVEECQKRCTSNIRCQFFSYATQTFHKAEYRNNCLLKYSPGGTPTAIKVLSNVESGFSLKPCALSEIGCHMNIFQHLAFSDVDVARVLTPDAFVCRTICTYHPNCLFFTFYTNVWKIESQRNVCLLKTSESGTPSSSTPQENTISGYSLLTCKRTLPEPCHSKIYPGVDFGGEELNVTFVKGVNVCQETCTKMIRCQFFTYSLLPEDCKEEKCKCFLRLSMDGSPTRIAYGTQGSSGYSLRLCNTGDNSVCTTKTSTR
protocol: Anti-plasma kallikrein activity: inhibition of S-2302 decomposition
Format: biochemical
conditions: Table 2; substrate S-2302, pH 7.8, 37° C.; read-out: Plasma Kallikrein S-2302 I50
Where a name gives a salt, the structure may show the parent alone.
readout: IC50

{"columns": ["molecule", "assayed-system", "test-value"],
 "data": [
  ["COC(=O)[C@H]1CCCN1C(=O)C(Cc1cccc(Oc2ccccc2)c1)NC(=O)[C@H]1CC[C@H](CN)CC1 (stereo partly drawn)", "human plasma kallikrein (Homo sapiens)", "> 1 mM"],
  ["NC[C@H]1CC[C@H](C(=O)NC(Cc2cccc(Oc3ccccc3)c2)C(=O)N2CCC(C(=O)O)CC2)CC1 (stereo partly drawn)", "human plasma kallikrein (Homo sapiens)", "> 1 mM"]
]}

Tell us which IC50 value is on record for NC[C@H]1CC[C@H](C(=O)NC(Cc2cccc(Oc3ccccc3)c2)C(=O)Nc2ncccc2C(=O)O)CC1 (mixture of isomers) [Compound 10, dihydrobromide] > 0.25 mM

---

assayed-system: human plasmin (Homo sapiens)
protocol: Antiplasmin activity: inhibition of S-2251 decomposition
Assay type: biochemical
conditions: Table 2; substrate S-2251, pH 7.4, 37° C.
Items are presented alongside their recorded IC50.

{"columns": ["compound", "test-value"],
 "data": [
  ["COCCCNC(=O)C(Cc1cccc(C(F)(F)F)c1)NC(=O)[C@H]1CC[C@H](CN)CC1 (stereo partly shown) [Compound 28]", "> 1000 µM"]
]}

Tell us which IC50 value is on record for CCOC(=O)c1cccc(NC(=O)C(Cc2cccc(Oc3ccccc3)c2)NC(=O)c2ccc(NC(=N)N)cc2)c1 (stereo not shown) [Compound 33] > 100 µM

Tell us which IC50 value is on record for NC[C@H]1CC[C@H](C(=O)NC(Cc2cccc(Oc3ccccc3)c2)C(=O)N2CCOCC2)CC1 (stereo partly shown) [Compound 19] > 1000 µM

Tell us which IC50 value is on record for COC(=O)[C@@H](C)NC(=O)C(Cc1cccc(Oc2ccccc2)c1)NC(=O)[C@H]1CC[C@H](CN)CC1 (stereo partly shown) [Compound 16] > 1000 µM
